Reported Off-Rate Ratio to that of EM0005-87c by item:
Measured Target: human PD-L1/His fusion protein (human, UniProt Q9NZQ7 19-239)
Sequence (Q9NZQ7 19-239 limits assumed): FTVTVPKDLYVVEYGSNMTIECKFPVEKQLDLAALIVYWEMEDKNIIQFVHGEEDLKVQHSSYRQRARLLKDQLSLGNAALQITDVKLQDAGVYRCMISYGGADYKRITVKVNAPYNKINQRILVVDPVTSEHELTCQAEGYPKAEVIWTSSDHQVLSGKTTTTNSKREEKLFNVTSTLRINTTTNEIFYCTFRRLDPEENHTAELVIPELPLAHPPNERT
Assay Remarks: BLI off-rate; test group 1
Give the quantity in %, number only.

Binder | Data Value
HuEM0005-87-3 (antibody, human IgG1, V domains shown) VH: EVQLVQSGAEVKKPGASVKVSCKASGYTFTDYYINWVRQAPGQGLEWIGETIPNTGGTTYNQKFKARVTLTVDKSTSTVYMELSSLRSEDTAVYYCARYQSGSPFAYWGQGTTVTVSS VL: DIVMTQSPDSLAVSLGERATINCKASQNVGTAVAWYQQKPGQPPKLLIYSASNRYTGVPDRFTGSGSGTDFTLTISSLQAEDVAVYYCQQHYSTPYTFGGGTKLEIK | 63

Value of measured Off-Rate Ratio to that of EM0005-87c for the entry HuEM0005-87-5 (antibody, human IgG1, V domains shown) VH: EVQLVQSGAEVKKPGASVKVSCKASGYSFTDYYINWVKQAPGQGLEWIGETIPNTGGTTYNQKFKAKATLTRDKSTSTAYMELKSLRSEDTAVYYCARYQSGSPFAYWGQGTTVTVSS VL: DIVMTQSPDSLAVSLGERATINCKASQNVGTAVAWYQQKPGQPPKLLIYSASNRYTGVPDRFTGSGSGTDFTLTISSLQAEDVAVYYCQQHYSTPYTFGGGTKLEIK : 64
